Hi there, I'd appreciate the recorded pest or weed control at 10 ppm for every entry that follows.
# Tested on: Puccinia recondita f. sp. tritici
# EXPERIMENT NOTES: Test B: preventive spray on wheat seedlings, wheat leaf rust
# Format: in vivo
# MEASUREMENT CONDITIONS: Puccinia recondita, 192 h; Rate 10 ppm; read-out: Test B disease control rating
Record the value in %, omitting the unit from your answer.

pest or weed control at 10 ppm reported for this compound COC(=O)NNc1cc(-c2ccn(-c3c(F)cc(C(C)C)cc3F)n2)ccc1C : 91

pest or weed control at 10 ppm reported for this compound CO/N=C(\C)c1cc(F)c(-n2ncc(-c3ccc(C)c(CNC(=O)OC)c3)n2)c(F)c1 : 86

pest or weed control at 10 ppm reported for this compound COC(=O)NNc1cc(-c2ccn(-c3c(F)cc(Cl)cc3F)n2)ccc1C : 68

pest or weed control at 10 ppm reported for this compound COC(=O)NCc1cc(-c2ccn(-c3c(F)cc(C4CC4(F)F)cc3F)n2)ccc1C (stereo not drawn) : 100

pest or weed control at 10 ppm reported for this compound CO/N=C(\C)c1cc(F)c(-n2ccc(-c3ccc(C)c(CNC(=O)OC)c3)n2)c(F)c1 : 100

pest or weed control at 10 ppm reported for this compound CO/N=C(/C)c1cc(F)c(-n2ccc(-c3ccc(C)c(CNC(=O)OC)c3)n2)c(F)c1 : 100

pest or weed control at 10 ppm reported for this compound COC(=O)NNc1cc(-c2ccn(-c3c(F)cc(C(F)(F)F)cc3F)n2)ccc1C : 85

pest or weed control at 10 ppm reported for this compound CCC(C)c1cc(F)c(-n2ncc(-c3ccc(C)c(CNC(=O)OC)c3)n2)c(F)c1 (stereo not drawn) : 99

pest or weed control at 10 ppm reported for this compound COC(=O)NNc1cc(-c2ccn(-c3c(F)cccc3F)n2)ccc1C : 0

###

Hi there, I'd appreciate the recorded Test F disease control rating for every entry that follows.
# System: Alternaria solani
# EXPERIMENT NOTES: Test F: preventive spray on tomato seedlings, tomato early blight
# Assay type: in vivo
# MEASUREMENT CONDITIONS: Rate 10 ppm
Record the value in %, omitting the unit from your answer.

Test F disease control rating reported for this compound COC(=O)NCc1cc(-c2ccn(-c3c(F)cc(OC(F)F)cc3F)n2)ccc1C : 0

Test F disease control rating reported for this compound COC(=O)NCc1cc(-c2ccn(-c3c(F)cc(C(F)(F)F)cc3F)n2)ccc1C : 0

Test F disease control rating reported for this compound COC(=O)NCc1cc(-c2ccn(-c3c(F)cc(C(C)C)cc3F)n2)ccc1C : 85

Test F disease control rating reported for this compound COC(=O)NCc1cc(-c2ccn(-c3c(F)cc(Cl)cc3F)n2)ccc1C : 40
